Examples of molecules with documented melting point follow.

Consider the following illustrative entries.
molecule=O=C(O)c1cc2c(=O)n(-c3ccccc3)c3ccccc3n2c1 measured_result="304 to 306 °C"
molecule=COCCN1CCC(c2nc3cc(-c4ccc(-n5cnnn5)cc4F)ccc3o2)CC1 measured_result="148 to 152 °C"
molecule=CCOC(=O)/C(=N\OC1(C)CCCC1)c1csc(N)n1 measured_result="94 to 95 °C"

Hello, please tell me recorded melting point for this one: Cc1nc(-n2ccn(CCc3ccc(F)cc3)c2=O)sc1C(=O)NCc1cccnc1
160 to 162 °C

Hello, please tell me recorded melting point for this one: CCCCc1nc(-c2ccco2)c2ncn(Cc3ccc(OC)cc3)c2n1
103 °C

Hello, please tell me recorded melting point for this one: CCCOc1cc2c(cc1OC)C(c1ccc(OC)c(OC)c1)=NN=C(C)C2CC (stereo unspecified)
110 to 112 °C
